SYSTEM: T1, EsCas13d, nuclease-dead (Eubacterium siraeum, UniProt B0MS50, R295A;H300A;R849A;H854A)
T1 sequence: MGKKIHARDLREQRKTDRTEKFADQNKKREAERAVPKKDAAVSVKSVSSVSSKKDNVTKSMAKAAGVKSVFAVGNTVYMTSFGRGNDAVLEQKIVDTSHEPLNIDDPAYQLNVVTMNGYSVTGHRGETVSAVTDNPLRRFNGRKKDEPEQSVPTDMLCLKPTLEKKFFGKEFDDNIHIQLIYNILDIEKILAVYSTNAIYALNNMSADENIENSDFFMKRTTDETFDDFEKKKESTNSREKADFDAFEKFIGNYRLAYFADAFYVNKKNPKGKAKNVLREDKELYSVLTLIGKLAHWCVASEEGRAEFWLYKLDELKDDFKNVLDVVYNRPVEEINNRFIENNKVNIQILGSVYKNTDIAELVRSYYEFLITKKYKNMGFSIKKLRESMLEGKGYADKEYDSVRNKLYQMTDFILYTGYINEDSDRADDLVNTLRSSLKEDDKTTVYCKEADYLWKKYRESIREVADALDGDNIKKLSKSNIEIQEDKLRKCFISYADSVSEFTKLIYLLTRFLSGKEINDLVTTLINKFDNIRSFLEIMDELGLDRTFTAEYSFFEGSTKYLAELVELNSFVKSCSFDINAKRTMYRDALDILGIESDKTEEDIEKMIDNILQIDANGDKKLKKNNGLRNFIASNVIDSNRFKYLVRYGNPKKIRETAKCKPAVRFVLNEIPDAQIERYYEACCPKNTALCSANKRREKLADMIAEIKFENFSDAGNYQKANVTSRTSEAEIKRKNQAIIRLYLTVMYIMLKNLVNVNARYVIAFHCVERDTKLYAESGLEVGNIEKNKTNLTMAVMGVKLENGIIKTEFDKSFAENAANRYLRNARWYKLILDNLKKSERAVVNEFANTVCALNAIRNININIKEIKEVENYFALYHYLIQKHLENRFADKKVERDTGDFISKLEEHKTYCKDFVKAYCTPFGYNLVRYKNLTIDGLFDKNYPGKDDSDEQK
METHOD DESCRIPTION: crRNA (strand 1, pre-loaded); Mg2+; 40 mM Tris-HCl pH 7.5, 150 mM NaCl, 6 mM MgCl2, 1 mM DTT, 0.1% Tween-20, 0.2 mg/ml BSA; 25 C; 10 min per concentration, then washed
CONDITION DETAILS: tags: His6-TwinStrep-SUMO cleaved; N-terminal SNAP kept (SNAP-Surface 488); label: 3' end held by stalled T7 RNA polymerase
Each entry below carries its reported Kd.
VALUE KIND: Kd (nM)

BINDER	VALUE KIND	ENDPOINT RESULT
target 2 MT 5'PFS AUA 3'PFS UCU (mixed) RNA 1: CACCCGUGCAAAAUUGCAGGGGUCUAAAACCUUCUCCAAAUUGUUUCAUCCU RNA 2: GGGAAUGGAUCCACAUCUACGAAUUCAUAAGGAUGAAACAAUUUGGAGAAGUCUAGAUCGGAAGAGCACACGU	Kd	33
target 1 A1U,C4G (mixed) RNA 1: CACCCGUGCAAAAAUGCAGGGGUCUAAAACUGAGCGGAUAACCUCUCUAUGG RNA 2: GGGAAUGGAUCCACAUCUACGAAUUCGUACCAUAGAGAGGUUAUCCGGUCUCCGAGAUCGGAAGAGCACACGU	Kd	6.11
